All values here come from PubChem BioAssay (Tox21).

target: Cytochrome P450 3A4 (Homo sapiens); experiment: Cytochrome P450 Family 3 Subfamily A Member 4 (CYP3A4) small molecule antagonists: luciferase reporter qHTS assay (AID 1671201); settings: P450-Glo CYP3A4 enzyme, luciferin luminescence, 1 h; series mostly up to 115 µM; also: nearly all actives have a fitted effect of over 50% in size
Records with an inconclusive call do not appear. Active and inactive are the calls of the source. Calls follow the shape of the dose curve; as a rule, active = well fitted inhibition curve with a large enough effect in the repeat runs; inconclusive = weak or mixed curves; inactive = no such curve, though single readings can be large or run the other way.
Answer with one of the outcomes given here: 1 (active), -1 (inactive)

Tell me the recorded outcome of this test for CCN(CC)C(=O)SCc1ccc(Cl)cc1 . -1

Tell me the recorded outcome of this test for C1=Cc2cccc3cccc1c23 . -1

Tell me the recorded outcome of this test for CCOC(=O)C(C)OC(=O)c1cc(Oc2ccc(C(F)(F)F)cc2Cl)ccc1[N+](=O)[O-] (stereo unspecified) . -1

Tell me the recorded outcome of this test for O=[N+]([O-])c1c(Cl)c(Cl)c(Cl)c(Cl)c1Cl . -1

Tell me the recorded outcome of this test for NCc1cccnc1 . -1

Tell me the recorded outcome of this test for Nc1ccc(Cl)c(Cl)c1 . 1

###

assay: qHTS assay to identify small molecule agonists of the hypoxia (HIF-1) signaling pathway - cell viability counter screen (AID 1224844); settings: HRE-bla ME-180 viability, CellTiter-Glo luminescence, 17 h; series mostly up to 76.8 µM; also: nearly all actives have a fitted effect of over 50% in size
Results filed as inconclusive are left out. Calls of active or inactive are those of the source. Calls follow the shape of the full dose curve.
Answer with one of the outcomes given here: YES (active), NO (inactive)

Tell me the recorded outcome of this test for CCCCOCCOP(=O)(OCCOCCCC)OCCOCCCC . NO

Tell me the recorded outcome of this test for CN(C)c1ccc(C(=O)c2ccc(N(C)C)cc2)cc1 . NO

Tell me the recorded outcome of this test for CCOCN(C(=O)CCl)c1c(C)cccc1CC . YES

Tell me the recorded outcome of this test for C=CCN(CC=C)C(=O)C(Cl)Cl . NO

Tell me the recorded outcome of this test for O=C(NC(=O)c1c(F)cccc1F)Nc1ccc(Cl)cc1 . NO

Tell me the recorded outcome of this test for O=C(CCl)c1ccccc1 . NO

Tell me the recorded outcome of this test for C[C@]12CCC(=O)C[C@@H]1CC[C@@H]1[C@@H]2CC[C@]2(C)[C@@H](O)CC[C@@H]12 . NO

Tell me the recorded outcome of this test for CC1(C)C(C=C(Cl)Cl)C1C(=O)OC(C#N)c1cccc(Oc2ccccc2)c1 (stereo not given) . NO

Tell me the recorded outcome of this test for Nc1ccc(-c2ccc(N)c(N)c2)cc1N . NO

Tell me the recorded outcome of this test for N#Cc1cc(Br)c(O)c(Br)c1 . NO

Tell me the recorded outcome of this test for CCOc1cc(C=O)ccc1O . NO

Tell me the recorded outcome of this test for CCCCN(CCCC)N=O . NO

Tell me the recorded outcome of this test for C=CCc1ccc2c(c1)OCO2 . NO

Tell me the recorded outcome of this test for Cc1c(COC(=O)[C@@H]2[C@H](/C=C(\Cl)C(F)(F)F)C2(C)C)cccc1-c1ccccc1 . NO

Tell me the recorded outcome of this test for CCCCCCCCOC(=O)c1ccccc1C(=O)OCCCCCCCC . NO

Tell me the recorded outcome of this test for O=C(O)CC[N+](=O)[O-] . NO

Tell me the recorded outcome of this test for CC(C)NC(C)C . NO

Tell me the recorded outcome of this test for CCCCCc1cc(O)cc(O)c1 . NO

Tell me the recorded outcome of this test for CCCCN(CC)c1c([N+](=O)[O-])cc(C(F)(F)F)cc1[N+](=O)[O-] . NO

Tell me the recorded outcome of this test for O=P(Oc1ccccc1)(Oc1ccccc1)Oc1ccccc1 . NO
